The measured values listed here are drawn from paper PMC10397247.

Target Or System: T1, 4H918-bN
T1 chain: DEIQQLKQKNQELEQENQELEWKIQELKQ
Method: two-hybrid library CCNG1;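 note: natural log of median RNA to DNA barcode read ratio; higher means stronger binding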
Property: interaction score

Please review the following examples before continuing.
In [3]: df
Out[3]:
                                     binder  value_measured
0  DEIQQLKQKNQELEQENQELEWKIQELKQ [4H918-bN]          -0.715
1  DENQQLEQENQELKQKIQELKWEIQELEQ [4H1257-bN]           -1.21
2  DKNQQLEQEIQELKQKNQELEWEIQELEQ [4H3185-bN]           -1.19

a: DEIQQLKQKNQELEQEIQELKWENQELKQ [4H908-bN]
b: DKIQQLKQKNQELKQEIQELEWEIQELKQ [4H3010-bN]
In: Compare a and b by numeric interaction score and name the larger one. Your choice should be expressed through its label.
Out: b
(b: -0.536, a: -0.988)

A: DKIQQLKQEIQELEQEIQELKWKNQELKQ [4H2576-bN]
B: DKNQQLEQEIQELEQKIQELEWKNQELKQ [4H3112-bN]
In: Compare A and B by numeric interaction score and name the larger one. Your choice should be expressed through its label.
Out: B
